molecular target: Human immunodeficiency virus type 1 protease (Human immunodeficiency virus 1, UniProt Q72874, Q7K); test: Inhibition of HIV1 protease Q7K mutant by FRET method; conditions: read-out: Ki
pKi: −log10 of the molar value.
Entry flag: MET if pKi reaches 9; NOT MET if it does not.

These solved cases illustrate the format of a correct answer.
structure: CC[C@@H](C)CN(C[C@@H](O)[C@H](Cc1ccccc1)NC(=O)C[C@@H](O)CC)S(=O)(=O)c1ccc(OC)cc1
classification: MET
//
structure: CC[C@@H](C)CN(C[C@@H](O)[C@H](Cc1ccccc1)NC(=O)[C@@H](NC(C)=O)C(C)C)S(=O)(=O)c1ccc2ncsc2c1
classification: MET

Could you tell me if the measured pKi of `Cc1cccc(C(=O)N[C@@H](Cc2ccccc2)[C@H](O)CN(CC2CC2)S(=O)(=O)c2ccco2)n1` reaches 9 or more?
NOT MET

Has `CC[C@H](O)CC(=O)N[C@@H](Cc1ccccc1)[C@H](O)CN(CC(C)C)S(=O)(=O)c1ccc(OC)cc1` a recorded pKi greater than or equal to 9?
MET

Please indicate if the recorded pKi for `COc1cccc(S(=O)(=O)N(C[C@H]2CCCO2)C[C@@H](O)[C@H](Cc2ccccc2)NC(=O)[C@@H]2CN(c3cccc(F)c3)C(=O)O2)c1` meets or exceeds 9.
NOT MET

Is reported pKi greater than or equal to 9 here: `CCCCCN(C[C@@H](O)[C@H](Cc1ccccc1)NC(=O)[C@@H](NC(C)=O)C(C)C)S(=O)(=O)c1ccc(OC)cc1`
MET

Could you please find out whether `CNC(=O)CCC(=O)N[C@@H](Cc1ccccc1)[C@H](O)CN(C[C@@H](C)O)S(=O)(=O)c1cccc(OC)c1` has pKi that meets 9 or exceeds it?
NOT MET
